Ref: the supplement of paper PMC10567573

B1: KCNAB2 (parent)
chain: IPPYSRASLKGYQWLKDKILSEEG

Variants of: B1
protocol: protein stability index of a GFP-peptide fusion (GPS, HEK-293T) (PSI 1-6); higher = more stable;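 note: lentivirally expressed fusions sorted by FACS into six bins by GFP to DsRed ratio, PSI derived from sequencing read proportions per bin multiplied by bin number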
setup conditions: c terminus: a fixed tail appended
Label T when protein stability index is at or above 3; anything below gets F.

Study these solved cases before continuing.
Tell me whether protein stability index is at least 3 here: S5Q
F

P3R ?
T

K18H ?
F

New cases:
Tell me whether protein stability index is at least 3 here: L20P
T

I1M ?
F

L15P ?
T

A7S ?
T

Y12V ?
F

S21L ?
F

G11T ?
F

D17V ?
F
